TGI values for the compounds below.
Tested on: HCT-15 colon
Test Name: NCI tumour cell line growth inhibition, 48 h

* Cc1cn(C2CC(/[N+]([O-])=N\Nc3ccc([N+](=O)[O-])cc3)C(CO)O2)c(=O)[nH]c1=O (stereo not given) | > 100 µM
* ClC1(Cl)C2CCOC21n1cnc2ccccc21 (stereo not given) | > 100 µM
* COc1ccc(/C=C/c2cnnc3ccccc23)cc1OC | > 10 µM

[ask] # get_value(readout='TGI', item= "CN1CCN(C(=S)N(C(=O)c2ccc(Cl)cc2)C2CCCCC2)CC1" )
[reply] > 100 µM

[ask] # get_value(readout='TGI', item= COc1ccc(C(CC(=O)c2ccc(O)cc2)C(C(=O)c2ccc(O)cc2)C(c2ccc(OC)cc2)C2C(=O)NC(=S)NC2=O)cc1 (stereo not given) )
[reply] 45.3 µM
